# key: entry, value: relative viability
# Test system: A549
# ASSAY TEXT: relative viability (normalised to negative control = 1, bortezomib = 0) (fraction); higher = less cytotoxic
# EXPERIMENTAL SETUP: inflammatory serum-free RHB-A with cytokines + LPS; 5 d + 24 h CellTiter-Blue; compound 300 nM; GSK126 pretreatment: 5 uM GSK126
Counter-ions that a name gives are not always drawn.
ATTRIBUTE MEASURED: relative viability

COc1cc([C@@H]2c3cc4c(cc3[C@@H](O[C@@H]3O[C@@H]5CO[C@@H](c6cccs6)O[C@H]5[C@H](O)[C@H]3O)[C@H]3COC(=O)[C@H]23)OCO4)cc(OC)c1O [Teniposide] = 0.685
CO[C@H]1C(=O)[C@]2(C)[C@@H](OC)C[C@H]3OC[C@@]3(OC(C)=O)[C@H]2[C@H](OC(=O)c2ccccc2)[C@]2(O)C[C@H](OC(=O)[C@H](O)[C@@H](NC(=O)OC(C)(C)C)c3ccccc3)C(C)=C1C2(C)C = 0.541
O=C1CCC(N2C(=O)c3ccccc3C2=O)C(=O)N1 (stereo unspecified) = 0.865
O=C(NOC[C@H](O)CO)c1ccc(F)c(F)c1Nc1ccc(I)cc1F = 0.108
Cc1nc(N)sc1-c1ccnc(Nc2ccc(N3CCOCC3)cc2)n1 = 0.797
COc1cccc(-c2cc(=O)c3ccccc3o2)c1N = 0.726
COc1cccc2c1C(=O)c1c(O)c3c(c(O)c1C2=O)C[C@@](O)(C(C)=O)C[C@@H]3O[C@H]1C[C@H](N)[C@H](O)[C@H](C)O1 [Daunorubicin hydrochloride; Daunorubicin HCl] = 0.133
COc1cc(N2CCC(N3CCN(C)CC3)CC2)ccc1Nc1ncc(Cl)c(Nc2ccccc2S(=O)(=O)C(C)C)n1 = 0.211
COc1cc2/c(=N/c3ccc(Br)cc3F)nc[nH]c2cc1OCC1CCN(C)CC1 = 0.742
NC(N)=NC(N)=NCCc1ccccc1 [Phenformin hydrochloride] = 0.955
NC(=O)c1ccc(N(C(N)=O)c2c(F)cccc2F)nc1-c1ccc(F)cc1F = 1.09
O=C(Nc1c[nH]nc1-c1nc2ccc(CN3CCOCC3)cc2[nH]1)NC1CC1 = 0.336
Cc1ccc(C(=O)Nc2cccc(C(F)(F)F)c2)cc1Nc1nc(-c2cccnc2)nc2c1cnn2C = 1.01
CC(C)(C)c1cnc(CSc2cnc(NC(=O)C3CCNCC3)s2)o1 = -0.00432
C/C=C1\NC(=O)[C@H]2CSSCC/C=C/[C@H](CC(=O)N[C@H](C(C)C)C(=O)N2)OC(=O)[C@H](C(C)C)NC1=O [Depsipeptide] = -0.0034
O=C1NC(=O)/C(=C/c2ccc3c(c2)OC(F)(F)O3)S1 = 1.01

###

# Test system: A549
# ASSAY TEXT: relative viability (normalised to negative control = 1, bortezomib = 0) (fraction); higher = less cytotoxic
# EXPERIMENTAL SETUP: inflammatory serum-free RHB-A with cytokines + LPS; 5 d + 24 h CellTiter-Blue; compound 30 nM; GSK126 pretreatment: 5 uM GSK126
Counter-ions that a name gives are not always drawn.
Response field label: string, one of t (relative viability strictly below 0.5) or f.

CC(=O)Nc1cccc(-n2c(=O)n(C3CC3)c(=O)c3c(Nc4ccc(I)cc4F)n(C)c(=O)c(C)c32)c1 = t
Cn1cnc(-c2cc3nccc(Oc4ccc(NC(=S)NC(=O)Cc5ccccc5)cc4F)c3s2)c1 = f
O=C(CCCCCCC(=O)Nc1ccccc1)NO = f
COc1cc([C@@H]2c3cc4c(cc3[C@@H](O[C@@H]3O[C@@H]5CO[C@@H](c6cccs6)O[C@H]5[C@H](O)[C@H]3O)[C@H]3COC(=O)[C@H]23)OCO4)cc(OC)c1O [Teniposide] = f
CC(C)C[C@H](NC(=O)[C@H](Cc1ccccc1)NC(=O)c1cnccn1)B(O)O = t
C/C(=C\c1csc(C)n1)[C@@H]1C[C@@H]2O[C@]2(C)CCC[C@H](C)[C@H](O)[C@@H](C)C(=O)C(C)(C)[C@@H](O)CC(=O)N1 [Ixabepilone] = t
OCCn1cc(-c2cnc3nnn(Cc4ccc5ncccc5c4)c3n2)cn1 = f
NCC(=O)CCC(=O)O [Aminolevulinic acid hydrochloride; Aminolevulinic acid] = f

###

# System: A549
# ASSAY TEXT: relative viability (normalised to negative control = 1, bortezomib = 0) (fraction); higher = less cytotoxic
# EXPERIMENTAL SETUP: inflammatory serum-free RHB-A with cytokines + LPS; 5 d + 24 h CellTiter-Blue; compound 30 nM; GSK126 pretreatment: none (vehicle)
Structures can show the parent of a compound that is named as a salt.
Response field label: string, one of y (relative viability strictly below 0.8) or n.

COc1cc2nccc(Oc3ccc(NC(=O)Nc4cc(C)on4)c(Cl)c3)c2cc1OC [AV-951(Tivozanib)] = n
c1cncc(CN2CCC(n3ncc4c(N5CCOCC5)nc(-c5ccc6[nH]ccc6c5)nc43)CC2)c1 = n
Cc1csc(-c2nnc(Nc3ccc(Oc4ncccc4-c4ccnc(N)n4)cc3)c3ccccc23)c1 = y
C/C=C1\NC(=O)[C@H]2CSSCC/C=C/[C@H](CC(=O)N[C@H](C(C)C)C(=O)N2)OC(=O)[C@H](C(C)C)NC1=O [Depsipeptide] = y
C[C@@H]1CN(CC(=O)Nc2ccc3c(c2)Cc2cccc(-c4cc(=O)cc(N5CCOCC5)o4)c2S3)C[C@H](C)O1 = n
Clc1ccc(C2(c3ccc(-c4cn[nH]c4)cc3)CCNCC2)cc1 = y
CCOc1ccn(-c2ccc(F)cc2)c(=O)c1C(=O)Nc1ccc(Oc2ccnc(N)c2Cl)c(F)c1 = n
Cc1[nH]c(/C=C2\C(=O)Nc3ccccc32)c(C)c1CCC(=O)O = y
Cc1ccc(Nc2nccc(N(C)c3ccc4c(C)n(C)nc4c3)n2)cc1S(N)(=O)=O [Pazopanib Hydrochloride] = n
COC(=O)Nc1ccc(-c2nc(N3CCOCC3)c3cnn(C4CCN(Cc5cccnc5)CC4)c3n2)cc1 = n
Nc1nc2[nH]cc(CCc3ccc(C(=O)N[C@@H](CCC(=O)O)C(=O)O)cc3)c2c(=O)[nH]1 [Pemetrexed; Pemetrexed Disodium] = n
CN(C)C1CCN(C(=O)c2ccc(NC(=O)Nc3ccc(-c4nc(N5CCOCC5)nc(N5CCOCC5)n4)cc3)cc2)CC1 = y
C[C@]12CC[C@H](O)CC1=CC[C@@H]1[C@@H]2CC[C@]2(C)C(c3cccnc3)=CC[C@@H]12 [Abiraterone] = n
Cc1cc(Nc2cc(N3CCN(C)CC3)nc(/C=C/c3ccccc3)n2)n[nH]1 = n
NC(=O)Nc1cc(-c2cccc(F)c2)sc1C(=O)N[C@H]1CCCNC1 = y
O=C(Cc1ccc(-c2ccc(OCCN3CCOCC3)cc2)cn1)NCc1ccccc1 = y

###

# Tested on: A549
# ASSAY TEXT: relative viability (normalised to negative control = 1, bortezomib = 0) (fraction); higher = less cytotoxic
# EXPERIMENTAL SETUP: inflammatory serum-free RHB-A with cytokines + LPS; 5 d + 24 h CellTiter-Blue; compound 300 nM; GSK126 pretreatment: 5 uM GSK126
Structures can show the parent of a compound that is named as a salt.
Response field label: string, one of criterion met (relative viability strictly below 0.9) or criterion not met.

N#CC(=C(/N)Sc1ccccc1N)/C(C#N)=C(/N)Sc1ccccc1N = criterion met
Cc1cc(Nc2nc(N[C@@H](C)c3ncc(F)cn3)ncc2Cl)[nH]n1 = criterion not met
Cc1ccc(-n2nc(C(C)(C)C)cc2NC(=O)Nc2ccc(OCCN3CCOCC3)c3ccccc23)cc1 = criterion not met
CCCS(=O)(=O)Nc1ccc(F)c(C(=O)c2c[nH]c3ncc(-c4ccc(Cl)cc4)cc23)c1F [vemurafenib] = criterion not met
Cc1cn(-c2cc(NC(=O)c3ccc(C)c(Nc4nccc(-c5cccnc5)n4)c3)cc(C(F)(F)F)c2)cn1 [Nilotinib] = criterion not met
Nc1ncnc2c1c(-c1cnc3[nH]ccc3c1)nn2C1CCCC1 = criterion met
N#Cc1ccc(C(c2ccc(C#N)cc2)n2cncn2)cc1 [Letrozole] = criterion met
Cc1cc(C(C)Nc2ccccc2)c2nc(N3CCOCC3)cc(=O)n2c1 (stereo not given) = criterion met
Cn1cc(C2=C(c3ccc(Cl)cc3Cl)C(=O)NC2=O)c2ccccc21 = criterion met
CC(C)(C)c1cc(NC(=O)Nc2ccc(-c3cn4c(n3)sc3cc(OCCN5CCOCC5)ccc34)cc2)no1 = criterion not met
Cn1cc(-c2ccc3nnc(C(F)(F)c4ccc5ncccc5c4)n3n2)cn1 = criterion not met
O=c1c(O)c(-c2ccc(O)c(O)c2)oc2cc(O)cc(O)c12 [QUERCETIN; Quercetin(Sophoretin); Quercetin dihydrate] = criterion not met
O=C(NOCC(O)CO)c1cc(Br)c(F)c(F)c1Nc1ccc(I)cc1F (stereo not given) = criterion met
O=C(NC1CCNCC1)c1n[nH]cc1NC(=O)c1c(Cl)cccc1Cl = criterion met
OCCn1cc(-c2cnc3nnn(Cc4ccc5ncccc5c4)c3n2)cn1 = criterion not met
NC1(c2ccc(-c3nc4ccn5c(=O)[nH]nc5c4cc3-c3ccccc3)cc2)CCC1 = criterion met
Oc1ccc(-c2nc(-c3ccc(F)cc3)c(-c3ccncc3)[nH]2)cc1 = criterion not met
Clc1ccc(C(c2ccccc2Cl)C(Cl)Cl)cc1 (stereo not given) = criterion met
CNC(=O)c1cc(COc2nnc(Nc3ccc(Cl)cc3)c3ccoc23)ccn1 [Telatinib (BAY 57-9352)] = criterion not met
FC(F)c1nc2ccccc2n1-c1nc(N2CCOCC2)nc(N2CCOCC2)n1 = criterion met
C=CC(=O)Nc1cc2c(Nc3ccc(F)c(Cl)c3)ncnc2cc1OCCCN1CCOCC1 [CI-1033(Canertinib)] = criterion met
CC(=O)O[C@H]1C(=O)[C@@]2(C)[C@H]([C@H](OC(=O)c3ccccc3)[C@]3(O)C[C@H](OC(=O)[C@H](O)[C@@H](NC(=O)c4ccccc4)c4ccccc4)C(C)=C1C3(C)C)[C@]1(OC(C)=O)CO[C@@H]1C[C@@H]2O [Paclitaxel; Taxol] = criterion met
CN(N=O)C(=O)N[C@@H]1[C@@H](O)[C@H](O)[C@@H](CO)O[C@@H]1O [Streptozocin] = criterion not met
Cc1cc(C(=O)NOCCO)c(Nc2ccc(I)cc2F)n(C)c1=O = criterion met
O=C1c2ccccc2-c2n[nH]c3cccc1c23 = criterion met
C[S+]([O-])c1ccc(-c2nc(-c3ccc(F)cc3)c(-c3ccncc3)[nH]2)cc1 (stereo not given) = criterion not met
CNNCc1ccc(C(=O)NC(C)C)cc1 [Procarbazine hydrochloride; Procarbazine] = criterion not met
CN(C)c1ccc(-c2nc3ncc(Cl)c(N4CCN(CC(=O)Nc5nccs5)CC4)c3[nH]2)cc1 = criterion not met
Cn1c(=O)n(-c2ccc(C(C)(C)C#N)cc2)c2c3cc(-c4cnc5ccccc5c4)ccc3ncc21 = criterion met
CCOc1cc2ncc(C#N)c(Nc3ccc(OCc4ccccn4)c(Cl)c3)c2cc1NC(=O)/C=C/CN(C)C [Neratinib] = criterion met
